Where do the numbers come from? From patent US20240270846A1.

# Target: T1, biotin-labeled human CD137 fused to human IgG1 Fc fragment (human CD137-Fc) (human, biotin-labeled)
# T1 construct: also called biotin-human CD137-Fc
# Assay remarks: competitive bead ELISA, biotin-human CD137-Fc on beads, 100 ng IgG, control competitor free human Fc 62.5 pmol
Recorded endpoint: ELISA signal with Free Fc 62.5 pmol
Answer with a bare number; do not write a unit.

*Q* For the binder DADU01_3#001 (antibody, human IgG1, V domains shown, also called dBBDu_126; dBBDu126) VH: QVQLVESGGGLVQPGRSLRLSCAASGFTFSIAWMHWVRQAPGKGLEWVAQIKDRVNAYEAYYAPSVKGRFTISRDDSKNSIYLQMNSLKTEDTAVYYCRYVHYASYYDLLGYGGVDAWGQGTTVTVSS VL: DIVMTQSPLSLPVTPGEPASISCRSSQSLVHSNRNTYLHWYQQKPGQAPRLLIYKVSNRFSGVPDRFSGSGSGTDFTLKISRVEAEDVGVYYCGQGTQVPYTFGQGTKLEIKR , what ELISA signal with Free Fc 62.5 pmol is on record?
*A* 81000
